Reported pIC50 values for the following molecules.
System: Aβ42
Method description: γ-secretase-modulating activity, Method 2: Aβ42 Alphalisa in supernatant of SKNBE2 cells carrying APP 695-wild type (Table 3b)
Assay type: cell-based
Recorded conditions: overnight
Interpret pIC50 as the negative base-10 log of the concentration measured in mol/L.

Completed entries (count: 8):
COc1cc(-c2nc(Nc3cccc(C#N)c3)n(C)n2)ccc1-n1cnc(C)c1 [Compound 224] | 6.19
COc1cc(-c2nc(Nc3cccc(F)c3)n(C)n2)ccc1-n1cnc(C)c1 [Compound 104] | 6.94
COc1cc(-c2nc(Nc3ccccc3)n(C)n2)ccc1-n1cnc(C)c1 [Compound 335] | 6.70
COc1cc(-c2nc(NC3CCCC(C(F)(F)F)C3)n(C)n2)ccc1-n1cnc(C)c1 (centres unmarked) [Compound 96] | 6.47
COc1cc(-c2nc3c(-c4ccccc4OC(F)(F)F)cccn3n2)ccc1-n1cnc(C)c1 [Compound 288] | 6.82
COc1cc(-c2nc(Nc3ccc(C)nc3)n(C)n2)ccc1-n1cnc(C)c1 [Compound 238] | 5.80
COc1cc(-c2nc(Nc3cc([S+](C)[O-])ccc3F)n(C)n2)ccc1-n1cnc(C)c1 (racemic) [Compound 330] | 6.22
COc1cc(-c2nc(Nc3cc(F)cc(C(F)(F)F)c3)n(C)n2)ccc1-n1cnc(C)c1 [Compound 159] | 7.68

The measured pIC50 associated with COc1cc(F)ccc1Nc1nc(-c2ccc(-n3cnc(C)c3)c(OC)c2)nn1C [Compound 215] reads 6.57

Measured pIC50, COc1cc(-c2nc(Nc3cc(Cl)ccc3F)n(C)n2)ccc1-n1cnc(C)c1 [Compound 123] : 7.24

Query COc1cc(-c2nc3n(n2)CCOC3c2ccccc2OC(F)(F)F)ccc1-n1cnc(C)c1 (centres unmarked) [Compound 346] yields pIC50 of 7.02

Field pIC50 (entry COc1cc(-c2nc(Nc3c(F)ccc(C(F)(F)F)c3F)n(C)n2)ccc1-n1cnc(C)c1 [Compound 211] ) reads 7.60

For COc1cc(-c2nc(Nc3ccc4c(c3)OC(F)(F)O4)n(C)n2)ccc1-n1cnc(C)c1 [Compound 231] the molecule record lists pIC50 as 7.25
